The measurements presented in this section are drawn from patent US8993606B2.

Assay: Example 4: seven-day dosing in iron-overloaded human subjects (PK, tolerability)
Type: in vivo
Settings: human, plasma; 32 mg/kg daily 7 days oral; read-out: AUC(0-24)

{"columns": ["Molecule", "Unit symbol", "AUC(0-t)"],
 "data": [
  ["COCCOCCOCCOc1cccc(C2=N[C@@](C)(C(=O)O)CS2)c1O [Compound 1]", "µg·h/mL", 158]
]}

====

Experiment: Example 7: high single doses in healthy human subjects (PK)
Assay type: in vivo
Details: both sexes, human, plasma; single oral dose 30 mg/kg, fasted; read-out: t½ (converted)

{"columns": ["Entry smiles", "half-life (h)"],
 "data": [
  ["COCCOCCOCCOc1cccc(C2=N[C@@](C)(C(=O)O)CS2)c1O", 12.1]
]}

====

Test: Example 6: multiple-dose study in iron-overloaded human subjects (PK)
Assay type: in vivo
Settings: both sexes, human, plasma; 3 mg/kg/day, 7 days oral; N = 4
Description: Example 6 was a multiple-dose, escalating study in iron-overloaded subjects conducted at 5 centers in the US, Australia, and Thailand. Men and women at least 18 years of age qualified to participate if they were able to voluntarily give consent and had transfusional overload requiring treatment with an iron chelator and were willing to discontinue their chelation for a period of at least 5 days prior to screening and during the study for a total of up to 35 days. […]

{"columns": ["Entry smiles", "CL renal [mL/min]"],
 "data": [
  ["COCCOCCOCCOc1cccc(C2=N[C@@](C)(C(=O)O)CS2)c1O", 75.2]
]}

====

Assay: Example 9: single-dose study in healthy human subjects 30-75 mg/kg and 20 mg/kg x 2 (PK)
Type: in vivo
Conditions: human, plasma; single oral dose 75 mg/kg; median; read-out: tmax
Procedure: Example 9 was a single-dose escalating study in healthy volunteers. The objectives of the study were to assess the safety, tolerability, pharmacokinetic, and pharmacodynamics of single ascending doses of Compound 1. The doses tested were 30, 40, 50, 60, and 75 mg/kg once daily and a regimen of 20 mg/kg twice a day, which extended the range of doses evaluated. This Example confirms the earlier results obtained with higher dosage, as described in Example 7. […]
Metric: Tmax (h)

{"columns": ["Molecule", "Experimental result"],
 "data": [
  ["COCCOCCOCCOc1cccc(C2=N[C@@](C)(C(=O)O)CS2)c1O [Compound 1]", 1.38]
]}

====

Experiment: Example 9: single-dose study in healthy human subjects 30-75 mg/kg and 20 mg/kg x 2 (PK)
Assay type: in vivo
Conditions: human, plasma; single oral dose 40 mg/kg
Metric: AUC(0-inf) (µg·h/mL)

{"columns": ["Entry smiles", "Experimental result"],
 "data": [
  ["COCCOCCOCCOc1cccc(C2=N[C@@](C)(C(=O)O)CS2)c1O", 195]
]}

====

Assay: Example 6: multiple-dose study in iron-overloaded human subjects (PK)
Type: in vivo
Settings: both sexes, human, plasma; 32 mg/kg/day, 7 days oral; N = 4
From the text: Example 6 was a multiple-dose, escalating study in iron-overloaded subjects conducted at 5 centers in the US, Australia, and Thailand. Men and women at least 18 years of age qualified to participate if they were able to voluntarily give consent and had transfusional overload requiring treatment with an iron chelator and were willing to discontinue their chelation for a period of at least 5 days prior to screening and during the study for a total of up to 35 days. […]

{"columns": ["Compound", "CL renal (mL/min)"],
 "data": [
  ["COCCOCCOCCOc1cccc(C2=N[C@@](C)(C(=O)O)CS2)c1O [Compound 1]", 73.6]
]}
